// data source = paper PMC11062922

Tested on: EPHA1
Set-up: species or system human, MV4-11 + K-562 + COLO205 + SK-N-BE2 + OVCAR-8
cond: read-out: apparent Kd; compound concentrations:100 nM and 1000 nM (sheet 'Samples'); n = 1
In this section we review reported potency estimated from few doses values for a set of compounds.
# unit: nM | format: bare number

{"compound": "CS(=O)(=O)CCn1c(=O)c(Oc2ccc(F)cc2F)cc2cnc(NC3CCOCC3)nc21", "potency estimated from few doses [nM]": 724}
{"compound": "O=C1NC(=O)C(N2CCc3ccccc32)=C1c1ccccc1Cl", "potency estimated from few doses [nM]": 207}
{"compound": "NCCNS(=O)(=O)c1ccc(-c2ccnc3[nH]ccc23)cc1 [GSK977617A]", "potency estimated from few doses [nM]": 723}

Exam item: Query potency estimated from few doses for `CN1C[C@@H]2Cn3c(c(C4=C(c5cn(C)c6ccccc56)C(=O)NC4=O)c4ccccc43)C[C@H]2C1.Cl`
Marked response: 368

Exam item: Please supply the value of reported potency estimated from few doses for the item `CCN(CC)CCOc1ccc(Nc2ncc3cc(-c4c(Cl)cccc4Cl)c(=O)n(C)c3n2)cc1`
Marked response: 2.59

Exam item: Look up and report measured potency estimated from few doses for this entry: `CNc1nc(-c2ccc3c(N)n[nH]c3c2)cc(N2C[C@@H](C(=O)NC3CCCCC3)CC[C@H]2C)n1`
Marked response: 845
